- ASSAY METHOD TEXT: in vitro
- MEASUREMENT CONTEXT: human, CC50, uninfected A549 cells, CellTiter-Glo
Reported CC50 is given for each of the following molecules.
PROPERTY: CC50

[[record]]
molecule = "O=C1c2c(O)c(=O)ccn2N2CN1C/C=C/CCc1ccccc1[C@H]2c1ccccn1 [Compound 43A]"
property = "CC50"
test_value = "> 2 µM"

[[record]]
molecule = "COC[C@H]1N2C/C=C\\COc3ccccc3[C@H](c3ccccc3)N1n1ccc(=O)c(O)c1C2=O (single isomer, unassigned) [Compound 109B]"
property = "CC50"
test_value = "> 0.2 µM"

[[record]]
molecule = "O=C1c2c(O)c(=O)ccn2N2CN1CC/C=C/COc1ccccc1[C@H]2c1ccccc1 [Compound 10B]"
property = "CC50"
test_value = "> 2 µM"

[[record]]
molecule = "Cc1ccccc1[C@@H]1c2ccc(F)c(F)c2OC/C=C\\CN2CN1n1ccc(=O)c(O)c1C2=O (single isomer, unassigned) [Compound 155A]"
property = "CC50"
test_value = "> 0.1 µM"

[[record]]
molecule = "O=C1c2c(O)c(=O)ccn2N2CN1CC/C=C/CCc1ccccc1C2c1ccccc1 (stereo not shown)"
property = "CC50"
test_value = "> 4 µM"

[[record]]
molecule = "O=C1c2c(O)c(=O)ccn2N2CN1C1(/C=C/COc3c(Cl)cccc3[C@@H]2c2ccccc2)CC1 (single isomer, unassigned) [Compound 96B]"
property = "CC50"
test_value = "> 1 µM"

[[record]]
molecule = "CC(C)[C@@H]1/C=C/COc2ccccc2[C@@H](c2ccccc2)N2CN1C(=O)c1c(O)c(=O)ccn12 (single isomer, unassigned) [Compound 132A]"
property = "CC50"
test_value = "> 0.2 µM"


* * *

Reported CC50 is given for each of the following molecules.
- ASSAY METHOD TEXT: in vitro
- MEASUREMENT CONTEXT: human, CC50, uninfected A549 cells, CellTiter-Glo
PROPERTY: CC50

[[record]]
molecule = "C[C@@H]1C/C=C/COc2c(F)cccc2[C@H](c2ccccc2)N2CN1C(=O)c1c(O)c(=O)ccn12 (single isomer, unassigned) [Compound 100BB]"
property = "CC50"
test_value = "32.5 µM"

[[record]]
molecule = "O=C1c2c(O)c(=O)ccn2N2CN1C/C=C\\COc1cccnc1[C@H]2c1ccccc1 (single isomer, unassigned) [Compound 27A]"
property = "CC50"
test_value = "> 2 µM"

[[record]]
molecule = "O=C1c2c(O)c(=O)ccn2N2CN1C1(/C=C/COc3cccc4c3[C@@H]2c2ccccc2SC4)CCC1 (single isomer, unassigned) [Compound 147A]"
property = "CC50"
test_value = "> 10 µM"

[[record]]
molecule = "CC(C)c1ccccc1[C@H]1c2ccc(F)c(F)c2OC/C=C\\CN2CN1n1ccc(=O)c(O)c1C2=O (single isomer, unassigned) [Compound 158A]"
property = "CC50"
test_value = "> 0.1 µM"

[[record]]
molecule = "O=C1c2c(O)c(=O)ccn2N2CN1CCC1C[C@@H]1COc1cccc3c1[C@@H]2c1ccccc1SC3 (single isomer, unassigned) [Compound 131AB]"
property = "CC50"
test_value = "> 0.2 µM"

[[record]]
molecule = "O=C1c2c(O)c(=O)ccn2N2CN1CCCCOc1ccccc1[C@H]2c1ccccc1 [Compound 8A]"
property = "CC50"
test_value = "> 2 µM"

